Hey, just so you know, these numbers are from the supplement of paper PMC8728848.

target: Fuc(a1-2)Gal(b1-3)GlcNAc(b1-2)Man(a1-3)[Fuc(a1-2)Gal(b1-3)GlcNAc(b1-2)Man(a1-6)]Man(b1-4)GlcNAc(b1-4)GlcNAc; test: glycan array binding signal (z-score within array); higher = stronger binding; conditions: glycan notation: IUPAC condensed, linker removed
About 410 targets per protein were measured; listed, in parts, are those with the strongest signals and a random draw of the rest.
The entries below are paired with their reported glycan array binding signal (z-score).
# answer = number (no unit)

BINDER	glycan array binding signal (z-score)
CBP21 (Serratia marcescens), O83009 (protein) MNKTSRTLLSLGLLSAAMFGVSQQANAHGYVESPASRAYQCKLQLNTQCGSVQYEPQSVEGLKGFPQAGPADGHIASADKSTFFELDQQTPTRWNKLNLKTGPNSFTWKLTARHSTTSWRYFITKPNWDASQPLTRASFDLTPFCQFNDGGAIPAAQVTHQCNIPADRSGSHVILAVWDIADTANAFYQAIDVNLSK	4.3
Epa19 (Candida glabrata) (protein) MGSSHHHHHHSSGLVPRGSHMASSKDPTRFPIGCSPQVLKTQPGLAVKLYSYGHPVPGCSYITYQYPDFPRSGYKKERKLADITGVNGKIDIDLKPNDPCRVLTGHLPSNYNYPDTLTYTNFTMILYGYFQPKVTGYHTFNLEADDLLFMNLGAGNAFDCCKAESTLDNFGNYQSYSLWGSDYAKANITVFLVSGVYYPIRLFYVNRDNNAVIDFSFTTEFDKEKVHDFTSYFFSASDGEQCPGSV	0.072
Ecp6 (Cladosporium fulvum), B3VBK9 (protein) MQSMILFAAALMGAAVNGFVLPRTDDPDCETKATDCGSTSNIKYTVVKGDTLTSIAKKFKSGICNIVSVNKLANPNLIELGATLIIPENCSNPDNKSCVSTPAEPTETCVPGLPGSYTIVSGDTLTNISQDFNITLDSLIAANTQIENPDAIDVGQIITVPVCPSSQCEAVGTYNIVAGDLFVDLAATYHTTIGQIKALNNNVNPSKLKVGQQIILPQDCKNVTTAVA	-0.096
Als3-2 (Candida albicans) (protein) KTITGVFNSFNSLTWSNAATYNYKGPGTPTWNAVLGWSLDGTSASPGDTFTLNMPCVFKFTTSQTSVDLTAHGVKYATCQFQAGEEFMTFSTLTCTVSNTLTPSIKALGTVTLPLAFNVGGTGSSVDLEDSKCFTAGTNTVTFNDGGKKISINVDFERSNVDPKGYLTD	7.12

API: the following record is the query input.
## Task I have this binder here, Eosinophil-derived neurotoxin (EDN) (Homo sapiens), P10153 (protein) MVPKLFTSQICLLLLLGLLAVEGSLHVKPPQFTWAQWFETQHINMTSQQCTNAMQVINNYQRRCKNQNTFLLTTFANVVNVCGNPNMTCPSNKTRKNCHHSGSQVPLIHCNLTTPSPQNISNCRYAQTPANMFYIVACDNRDQRRDPPQYPVVPVHLDRII , and I need its recorded glycan array binding signal (z-score).
## Result 0.954
